Items are presented alongside their recorded pKd.
- Assayed Target: human RORγt ligand binding domain (RORγt LBD) (Homo sapiens (Human), UniProt P51449)
- Sequence (P51449 other isoform, or with tags, fused parts or gaps): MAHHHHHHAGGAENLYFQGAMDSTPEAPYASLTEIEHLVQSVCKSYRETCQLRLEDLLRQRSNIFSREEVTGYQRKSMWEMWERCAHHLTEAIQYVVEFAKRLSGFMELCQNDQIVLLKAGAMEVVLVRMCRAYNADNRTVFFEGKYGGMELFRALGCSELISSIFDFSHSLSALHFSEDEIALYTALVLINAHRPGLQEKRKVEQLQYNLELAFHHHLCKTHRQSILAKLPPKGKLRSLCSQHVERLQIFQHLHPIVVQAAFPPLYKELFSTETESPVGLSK
- Test Summary: RORγt ThermoFluor® assay (thermal shift binding)
- Test Context: read-out: ThermoFluor® Assay, Kd
- Method: […] Bar-coded assay plates are robotically loaded onto a thermostatically controlled PCR-type thermal block and then heated at a typical ramp-rate of 1° C./min for all experiments. Fluorescence was measured by continuous illumination with UV light (Hamamatsu LC6) supplied via fiber optic and filtered through a band-pass filter (380-400 nm; >6 OD cutoff). […] Images were collected at each temperature, and the sum of the pixel intensity in a given area of the assay plate was recorded versus temperature. […]
In textbook form, pKd equals minus log to base ten of the concentration in mol/L.

Some solved entries appear below for comparison.
Molecule | Meas Value
C[C@H](Nc1cc(C(F)(F)F)c(-c2sc(C(=O)NCC(C)(C)O)nc2C(=O)N2C3CCC2CC3)cn1)C(F)(F)F [Example 82] | 8.32
C[C@H](NC(=O)c1nc(C(=O)N2C3CCC2CC3)c(-c2cnc(NC3(C)CCC3)cc2C(F)F)s1)C(C)(C)O [Example 189] | 8.44
C[C@@H](Nc1cc(C(F)(F)F)c(-c2sc(C(=O)NCC(C)(C)O)nc2C(=O)N2CCC[C@@H]2C)cn1)C1CCC1 (relative stereo) [Example 176] | 8.89
C[C@H]1CCCCN1C(=O)c1nc(C(=O)NCC(C)(C)O)sc1-c1cnc(NC2CCCCC2)c(C(F)(F)F)c1 [Example 4] | 9.01

Now consider the entry below.
Need pKd, item C[C@H](Nc1cc(C(F)F)c(-c2sc(C(=O)N[C@H](C)C(C)(C)O)nc2C(=O)N2C3CCC2CC3)cn1)C(F)(F)F [Example 445]
7.92

* * *

- Assayed Target: full-length human RORγt (Homo sapiens (Human), UniProt P51449)
- Sequence (P51449 other isoform, or with tags, fused parts or gaps): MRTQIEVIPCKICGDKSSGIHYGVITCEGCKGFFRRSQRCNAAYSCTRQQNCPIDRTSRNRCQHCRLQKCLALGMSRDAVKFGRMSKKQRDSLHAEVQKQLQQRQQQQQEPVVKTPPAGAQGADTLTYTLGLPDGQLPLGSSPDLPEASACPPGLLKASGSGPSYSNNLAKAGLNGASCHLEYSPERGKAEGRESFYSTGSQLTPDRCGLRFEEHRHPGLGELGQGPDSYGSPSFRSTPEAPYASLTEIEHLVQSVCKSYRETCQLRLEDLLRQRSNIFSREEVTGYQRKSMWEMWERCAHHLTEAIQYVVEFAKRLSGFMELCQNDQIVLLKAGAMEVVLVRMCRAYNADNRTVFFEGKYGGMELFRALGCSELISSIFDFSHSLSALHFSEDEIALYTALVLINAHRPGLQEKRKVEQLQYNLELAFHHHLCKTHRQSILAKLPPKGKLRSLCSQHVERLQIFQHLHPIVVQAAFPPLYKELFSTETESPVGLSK
- Test Summary: RORγt (full-length human) reporter assay, Conditions B or C
- Format: cell-based
- Test Context: Conditions B or C; marked *: footnote not given
Reported Metric: RORγt (FL) Reporter Assay B or C, % inhibition (value marked *)

Need RORγt (FL) Reporter Assay B or C, % inhibition (value marked *), item C[C@H](Nc1cc(C(F)F)c(-c2sc(C(=O)N[C@@H](C)C(C)(C)O)nc2C(=O)N2CC(F)(F)C[C@@H]2C)cn1)C1CC1
82* %

Need RORγt (FL) Reporter Assay B or C, % inhibition (value marked *), item CC[C@H](Nc1cc(C(F)F)c(-c2sc(C(=O)NCC(C)(C)O)nc2C(=O)N2CCCC[C@@H]2C)cn1)C(F)(F)F
96* %

Need RORγt (FL) Reporter Assay B or C, % inhibition (value marked *), item C[C@H](Nc1cc(C(F)F)c(-c2sc(C(=O)N[C@H]3C[C@@H]3O)nc2C(=O)N2CCC[C@@H]2C)cn1)C(F)(F)F (relative stereo) [Example 223]
112* %

* * *

- Assayed Target: UniProt P51449
- Test Summary: RORγt (full-length human) reporter assay, Conditions B or C
- Type: cell-based
- Test Context: Conditions B or C; marked *: footnote not given
Reported Metric: RORγt (FL) Reporter Assay B or C, % inhibition (value marked *)

Compound Structure | Meas Value
C[C@H](Nc1cc(C(F)F)c(-c2sc(C(=O)NC3CCS(=O)(=O)CC3)nc2C(=O)N2CCC[C@@H]2C)cn1)C(F)(F)F | 85* %
C[C@H](Nc1cc(C(F)(F)F)c(-c2sc(C(=O)NCC(C)(C)O)nc2C(=O)N2CC(F)(F)C[C@@H]2C)cn1)C1CC1 | 109* %
C[C@H](Nc1cc(C(F)(F)F)c(-c2sc(C(=O)N[C@@H]3COC[C@H]3O)nc2C(=O)N2C3CCC2CC3)cn1)C(F)(F)F | 111* %
CC[C@H](Nc1cc(C(F)(F)F)c(-c2sc(C(=O)N[C@@H]3COC[C@H]3O)nc2C(=O)N2CCC[C@@H]2C)cn1)C(F)(F)F | 101* %
CCC(C)(C)Nc1cc(C(F)(F)F)c(-c2sc(C(=O)NCC(C)(C)O)nc2C(=O)N2CCCC[C@@H]2C)cn1 | 104* %
C[C@H]1CCCN1C(=O)c1nc(C(=O)NCC2(O)CCC2)sc1-c1cnc(NC(C)(C)C)cc1C(F)F | 105* %

GET /values?readout=RORγt (FL) Reporter Assay B or C, % inhibition (value marked *)&system=UniProt P51449&item= CC[C@H](Nc1cc(C(F)F)c(-c2sc(C(=O)N[C@H]3COC[C@@H]3O)nc2C(=O)N2CCC[C@@H]2C)cn1)C(F)(F)F
105* %

GET /values?readout=RORγt (FL) Reporter Assay B or C, % inhibition (value marked *)&system=UniProt P51449&item= [2H]C([2H])([2H])C(O)(CNC(=O)c1nc(C(=O)N2CCC[C@@H]2C)c(-c2cnc(NC(C)(C)C)cc2C(F)(F)F)s1)C([2H])([2H])[2H]
113* %

GET /values?readout=RORγt (FL) Reporter Assay B or C, % inhibition (value marked *)&system=UniProt P51449&item= CC[C@H](Nc1cc(C(F)(F)F)c(-c2sc(C(=O)NCC(C)(C)O)nc2C(=O)N2C3CCC2CC3)cn1)C(F)(F)F
107* %

GET /values?readout=RORγt (FL) Reporter Assay B or C, % inhibition (value marked *)&system=UniProt P51449&item= CC(C)(O)CNC(=O)c1nc(C(=O)N2C3CCC2CC3)c(-c2cnc(NC(C)(C)C)cc2C(F)(F)F)s1
111* %

* * *

- Assayed Target: full-length human RORγt (Homo sapiens (Human), UniProt P51449)
- Test Summary: RORγt (full-length human) reporter assay, Conditions B or C
- Type: cell-based
- Test Context: Conditions B or C; read-out: RORγt (FL) Reporter Assay B or C, IC50
- Description: RORγt (Full-Length Human) Reporter Assay: Cells used in this assay were transiently co-transfected with three different plasmids, one expressing the GAL4-DNA binding domain (DBD)-RORγt fusion protein under control of a CMV promoter (NH2-Gal4-DBD:RORC-COOH in pCMV-BD, Stratagene #211342), and two reporter plasmids—the firefly luciferase reporter under control of a GAL4 promoter (pFR-Luc 2×GAL4) and Renilla luciferase reporter under control of CMV promoter (pRL-CMV, Promega # E2261). […]
Items are presented alongside their recorded IC50.

Need IC50, item CC[C@H](Nc1cc(C(F)F)c(-c2sc(C(=O)N[C@@H](C)C(C)(C)O)nc2C(=O)N2CC(F)(F)C[C@@H]2C)cn1)C(F)(F)F
11 nM

Need IC50, item CC[C@H](Nc1cc(C(F)F)c(-c2sc(C(=O)N[C@H]3CCC[C@@H]3O)nc2C(=O)N2C3CCC2CC3)cn1)C(F)(F)F
21 nM

Need IC50, item CC[C@H](Nc1cc(C(F)F)c(-c2sc(C(=O)N[C@H]3C[C@@H]3O)nc2C(=O)N2CCC[C@@H]2C)cn1)C(F)(F)F (relative stereo)
75 nM

* * *

- Assayed Target: full-length human RORγt (Homo sapiens (Human))
- Test Summary: RORγt (full-length human) reporter assay, Conditions B or C
- Assay type: cell-based
- Test Context: Conditions B or C; read-out: RORγt (FL) Reporter Assay B or C, IC50
Returns: string. Value is Yes if measured IC50 is below 0.03 µM, and No if it is greater than or equal to it.

Worked examples follow.
Molecule | Label Value
CC[C@@H](Nc1cc(C(F)F)c(-c2sc(C(=O)N[C@H](C)CO)nc2C(=O)N2CCC[C@@H]2C)cn1)C(F)(F)F [Example 206] | No
CC[C@H](Nc1cc(C(F)F)c(-c2sc(C(=O)N[C@@H]3COC[C@@H]3O)nc2C(=O)N2CCC[C@@H]2C)cn1)C(F)(F)F (single isomer, unassigned) [Example 162] | No
CC[C@H](Nc1cc(C(F)F)c(-c2sc(C(=O)N[C@@H]3CC[C@@H](O)C3)nc2C(=O)N2C3CCC2CC3)cn1)C(F)(F)F [Example 152] | Yes
C[C@H]1CCCN1C(=O)c1nc(C(=O)NCC(C)(C)O)sc1-c1cnc(NC2CCCC2(F)F)cc1C(F)(F)F (stereo partly drawn) [Example 127] | No

Determine if CC[C@H](Nc1cc(C(F)F)c(-c2sc(C(=O)NCC(C)(C)O)nc2C(=O)N2CCC[C@@H]2C)cn1)C1CC1 (relative stereo) [Example 166] shows IC50 strictly lower than 0.03 µM.
Yes

Determine if C[C@H]1CCCN1C(=O)c1nc(C(=O)NCC(C)(C)O)sc1-c1cnc(NC2(C)CCC2)cc1C(F)(F)F [Example 77] shows IC50 strictly lower than 0.03 µM.
Yes

Determine if CC(Nc1cc(C(F)(F)F)c(-c2sc(C(=O)NCC(C)(C)O)nc2C(=O)N2CCCC[C@@H]2C)cn1)C(F)(F)F (stereo partly drawn) [Example 33] shows IC50 strictly lower than 0.03 µM.
Yes

Determine if C[C@H](Nc1cc(C(F)(F)F)c(-c2sc(C(=O)N[C@@H]3CCC[C@@H]3O)nc2C(=O)N2CC(F)(F)C[C@@H]2C)cn1)C1CC1 [Example 201] shows IC50 strictly lower than 0.03 µM.
Yes

Determine if CC[C@H](Nc1cc(C(F)(F)F)c(-c2sc(C(=O)NCC(C)(C)O)nc2C(=O)N2CCC[C@@H]2C)cn1)C(F)(F)F [Example 111] shows IC50 strictly lower than 0.03 µM.
Yes
